The measured values listed here are drawn from patent US7179779B1.

Where a name gives a salt, the structure may show the parent alone.
Items are presented alongside their recorded melting point.

// solved cases for melting point follow
CC[N+](CC)(CC)Cc1ccc(C(=O)N2CCCCCCC2=O)cc1 (as salt: chloride) ... 194 to 196 °C
CC[N+](CC)(CC)Cc1ccc(C(=O)N2CCCCCCCC2=O)cc1 (as salt: chloride) ... 183 to 185 °C
CC[N+](CC)(CC)Cc1ccc(C(=O)N2CCCCCC2=O)cc1.[Cl-] ... 212 to 214 °C
CC[N+](CC)(CC)Cc1ccc(C(=O)N2CCCCC2=O)cc1.[Cl-] ... 187 to 189 °C

(Q) May I ask what melting point has been recorded for CC[N+](CC)(CC)Cc1ccc(C(=O)N2CCCC2=O)cc1 (as salt: chloride) ?
(A) 228 to 230 °C
